src = ChEMBL document CHEMBL3352625

assayed.target: NEP 24.11 (neprilysin) (Homo sapiens, UniProt P08473)
Sequence (P08473 whole entry): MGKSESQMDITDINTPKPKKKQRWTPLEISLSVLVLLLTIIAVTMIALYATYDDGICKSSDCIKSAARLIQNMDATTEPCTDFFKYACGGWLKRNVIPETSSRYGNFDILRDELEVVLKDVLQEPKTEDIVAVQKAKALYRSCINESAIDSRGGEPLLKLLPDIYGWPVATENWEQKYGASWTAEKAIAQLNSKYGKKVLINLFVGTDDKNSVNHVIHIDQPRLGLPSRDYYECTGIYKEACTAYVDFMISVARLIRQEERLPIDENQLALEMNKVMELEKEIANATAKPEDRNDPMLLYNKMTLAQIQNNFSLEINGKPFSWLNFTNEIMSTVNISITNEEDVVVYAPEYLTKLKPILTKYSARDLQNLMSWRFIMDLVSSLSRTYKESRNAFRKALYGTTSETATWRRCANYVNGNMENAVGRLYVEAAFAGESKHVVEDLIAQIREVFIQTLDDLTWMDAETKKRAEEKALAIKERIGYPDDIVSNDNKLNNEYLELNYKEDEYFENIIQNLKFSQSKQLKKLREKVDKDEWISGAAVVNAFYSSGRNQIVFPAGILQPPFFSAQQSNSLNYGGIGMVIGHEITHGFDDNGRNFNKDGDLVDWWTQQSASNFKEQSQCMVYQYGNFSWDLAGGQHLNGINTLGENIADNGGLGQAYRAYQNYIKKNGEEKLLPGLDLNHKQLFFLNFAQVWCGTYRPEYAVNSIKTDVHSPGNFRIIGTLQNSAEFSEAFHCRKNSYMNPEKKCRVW
method: Drug metabolism assessed as NEP 24.11 (unknown origin)-mediated degradation up to 24 hrs by HPLC analysis
Format: ADME
stated.conditions: NEP 24.11 (neprilysin) enzyme, read-out: Drug metabolism
observable: metabolised at 24 h

Input line: Can you look up the measured metabolised at 24 h of CSCC[C@H](NC(=O)[C@H](CC(C)C)NC(=O)CNC(=O)[C@H](Cc1ccccc1)N(C)C(=O)[C@H](Cc1ccccc1)NC(=O)[C@H](CC(=O)O)NC(=O)CCC(=O)O)C(N)=O [SENKTIDE] for me?
Output line: > 80%
